system: Abcg5; assay: Effect on Abcg5 mRNA expression in Sprague-Dawley rat liver at 15 mg/kg, ip administered twice daily every 12 hrs for 8 days by microarray analysis relative to control; format: ADME, organism-based; set-up: dose 15 mg/kg, route intraperitoneal; details: read-out: FC
recorded metric: fold induction at 8 days
Number only, no unit.

## Input Tell me reported fold induction at 8 days for COc1ccc2c3c1O[C@H]1C(=O)CC[C@@]4(O)[C@@H](C2)N(C)CC[C@]314.Cl [OXYCODONE HYDROCHLORIDE] , tested with Abcg5.
## Output 3.6

----------
test system: Slc2a2; assay: Effect on Slc2a2 mRNA expression in Sprague-Dawley rat liver at 15 mg/kg, ip administered twice daily every 12 hrs for 8 days by microarray analysis relative to control; type: ADME, organism-based; set-up: dose 15 mg/kg, route intraperitoneal; settings: read-out: FC
recorded metric: fold induction at 8 days
Number only, no unit.

## Input Need fold induction at 8 days of COc1ccc2c3c1O[C@H]1C(=O)CC[C@@]4(O)[C@@H](C2)N(C)CC[C@]314.Cl [OXYCODONE HYDROCHLORIDE] , thanks.
## Output 1.5

----------
system: AhR; assay: Effect on AhR mRNA expression in Sprague-Dawley rat liver at 15 mg/kg, ip administered twice daily every 12 hrs for 8 days by microarray analysis relative to control; assay type: ADME, organism-based; parameters: dose 15 mg/kg, route intraperitoneal; conditions: read-out: FC
recorded metric: fold induction at 8 days
Number only, no unit.

## Input Need fold induction at 8 days of COc1ccc2c3c1O[C@H]1C(=O)CC[C@@]4(O)[C@@H](C2)N(C)CC[C@]314.Cl [OXYCODONE HYDROCHLORIDE] , thanks.
## Output 2.3

----------
test system: Slc38a4; assay: Effect on Slc38a4 mRNA expression in Sprague-Dawley rat liver at 15 mg/kg, ip administered twice daily every 12 hrs for 8 days by microarray analysis relative to control; format: ADME, organism-based; design: dose 15 mg/kg, route intraperitoneal; conditions: read-out: FC
recorded metric: fold induction at 8 days
Number only, no unit.

## Input Need fold induction at 8 days of COc1ccc2c3c1O[C@H]1C(=O)CC[C@@]4(O)[C@@H](C2)N(C)CC[C@]314.Cl [OXYCODONE HYDROCHLORIDE] , thanks.
## Output 1.8

----------
tested on: Ugt1a1; assay: Effect on Ugt1a1 mRNA expression in Sprague-Dawley rat liver at 15 mg/kg, ip administered twice daily every 12 hrs for 8 days by microarray analysis relative to control; format: ADME, organism-based; design: dose 15 mg/kg, route intraperitoneal; conditions: read-out: FC
recorded metric: fold induction at 8 days

## Input Need fold induction at 8 days of COc1ccc2c3c1O[C@H]1C(=O)CC[C@@]4(O)[C@@H](C2)N(C)CC[C@]314.Cl [OXYCODONE HYDROCHLORIDE] , thanks.
## Output 1.6

----------
tested on: Slc16a10; assay: Effect on Slc16a10 mRNA expression in Sprague-Dawley rat liver at 15 mg/kg, ip administered twice daily every 12 hrs for 8 days by microarray analysis relative to control; format: ADME, organism-based; design: dose 15 mg/kg, route intraperitoneal; conditions: read-out: FC
recorded metric: fold induction at 8 days
Number only, no unit.

## Input Need fold induction at 8 days of COc1ccc2c3c1O[C@H]1C(=O)CC[C@@]4(O)[C@@H](C2)N(C)CC[C@]314.Cl [OXYCODONE HYDROCHLORIDE] , thanks.
## Output 3
